tested on: Wolbachia pipientis; test: Anti-Wolbachia Cell-Based Screen; assay type: functional; design: scale not given: in the data most compounds retested in dose-response had high values; settings: 5 µM
Hit rate of the full screen: of about 48,000 compounds, about 13,000 (27%) showed an effect of 50% or more. Some of the results follow.
Listed compounds paired with reported Percent Effect

Compound	Study target	Percent Effect (%)
CC(C)C1CN(S(=O)(=O)C2CC2)CCCN1Cc1ccc(F)cc1 (centres undefined)	Wolbachia pipientis	-0.9864
COc1cccc(COCC(=O)NC(C(N)=O)c2ccccc2F)c1 (centres undefined)	Wolbachia pipientis	9.878
COc1ccc(CN(C)C(=O)c2nnc(CN(C)C)o2)cc1	Wolbachia pipientis	-11.59
Cc1nc(C)n(CC2CCCCN2CC(=O)Nc2ccncc2)n1 (centres undefined)	Wolbachia pipientis	-2.552
Cc1nnc(CN2CCCC2c2ccc(C(C)(C)C)cc2)o1 (centres undefined)	Wolbachia pipientis	-26.52
Cc1nc(C)n(CC2CCCCN2CCC(=O)Nc2cc(C)on2)n1 (centres undefined)	Wolbachia pipientis	5.676
O=C(CN1CCCCCC1)NCc1ccc2[nH]c(=O)[nH]c2c1	Wolbachia pipientis	33.1
CC(Cn1cccn1)NC(=O)NCCCN1CCc2ccccc21 (centres undefined)	Wolbachia pipientis	-6.742
CCN1Cc2cc(F)ccc2N(CC(O)C(F)(F)F)CCC1=O (centres undefined)	Wolbachia pipientis	105.6
Cc1nc(C)n(CC2CCCN2CC(=O)Nc2cc(C)on2)n1 (centres undefined)	Wolbachia pipientis	98.7
Cc1c(C(=O)N2CCSCC2)sc2nc(C(F)(F)F)ccc12	Wolbachia pipientis	-6
O=C1c2c(O)cc(O)cc2O[C@@H](c2ccc(O)cc2)[C@@H]1O	Wolbachia pipientis	0.6664
CC(=O)c1cccc(OCCCC(=O)N(C)Cc2cscn2)c1	Wolbachia pipientis	4.484
CC(C)C(C)NC(=O)CCN1C(=O)CCc2cc(F)ccc21 (centres undefined)	Wolbachia pipientis	-7.908
COc1ccccc1Oc1ncccc1CNC(=O)[C@@H](C)NC(C)=O	Wolbachia pipientis	-4.174
COc1ccc(CN(C)[C@@H]2CN(S(=O)(=O)C(C)C)C[C@H]2O)cc1	Wolbachia pipientis	105.6
CC(NC1(CNS(C)(=O)=O)CCOCC1)c1ccccc1 (centres undefined)	Wolbachia pipientis	3.887
CC(C)C1CN(S(=O)(=O)N2CCCC2)CCCN1Cc1ccc(F)cc1 (centres undefined)	Wolbachia pipientis	-9.548
Cc1cn2c(n1)C(CNCc1ccc(C)s1)CCC2 (centres undefined)	Wolbachia pipientis	5.575
CCOCC(=O)N1C[C@@H](O)[C@H](N(C)Cc2ccc(OC)cc2)C1	Wolbachia pipientis	-9.013
CN1Cc2cc(F)ccc2N(CC(O)C(F)(F)F)CCC1=O (centres undefined)	Wolbachia pipientis	104.4
CS(=O)(=O)Nc1ccc(CNC(=O)CN2CCc3ccccc32)cc1	Wolbachia pipientis	8.101
CC(O)CN1CC2(CCC1=O)CCN(Cc1cc(F)ccc1Cl)CC2 (centres undefined)	Wolbachia pipientis	0.5458
Cc1nc(C)n(CC2CCCN2CC(=O)Nc2cc(C(C)C)no2)n1 (centres undefined)	Wolbachia pipientis	-1.165

Sourced from ChEMBL document CHEMBL3988442
